Where do these numbers come from? They come from the supplement of paper PMC3545927.

STUDY_TARGET: furin, P09958;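 also: purified furin at 1:10 enzyme:substrate in 50 mM HEPES pH 7.5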
Sequence (P09958 whole entry): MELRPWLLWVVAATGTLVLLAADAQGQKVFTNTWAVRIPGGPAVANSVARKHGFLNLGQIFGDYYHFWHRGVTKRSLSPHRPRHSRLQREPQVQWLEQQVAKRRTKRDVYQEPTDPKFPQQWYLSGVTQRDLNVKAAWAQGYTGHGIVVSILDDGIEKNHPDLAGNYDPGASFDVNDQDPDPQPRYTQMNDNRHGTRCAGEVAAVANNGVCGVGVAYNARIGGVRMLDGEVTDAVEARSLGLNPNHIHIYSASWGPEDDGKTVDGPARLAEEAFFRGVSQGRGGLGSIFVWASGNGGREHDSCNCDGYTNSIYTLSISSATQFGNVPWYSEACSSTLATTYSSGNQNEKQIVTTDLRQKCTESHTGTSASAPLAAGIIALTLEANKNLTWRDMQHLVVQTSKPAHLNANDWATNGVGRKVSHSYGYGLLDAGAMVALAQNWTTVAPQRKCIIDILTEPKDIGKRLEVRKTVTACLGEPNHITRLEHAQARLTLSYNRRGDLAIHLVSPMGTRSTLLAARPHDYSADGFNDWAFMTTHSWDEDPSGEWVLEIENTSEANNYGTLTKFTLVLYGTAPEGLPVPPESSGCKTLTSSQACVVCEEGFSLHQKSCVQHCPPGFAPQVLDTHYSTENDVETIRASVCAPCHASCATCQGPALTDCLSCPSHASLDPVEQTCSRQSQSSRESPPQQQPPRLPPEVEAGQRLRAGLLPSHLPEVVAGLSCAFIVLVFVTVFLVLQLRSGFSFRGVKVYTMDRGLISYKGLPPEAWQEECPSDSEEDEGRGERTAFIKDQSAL
TEST_DETAILS: furin cleavage Z-score vs untreated control; higher = more cleavage, active = 3.5 or more, inactive = 1 or less, 8 variable residues between constant flanks
MEASUREMENT_CONTEXT: 30 min
The list shows a part of the results. No count for the full screen is at hand.
Use T when the recorded furin cleavage Z-score is no lower than 0.3; use F when it is lower.

Examples from the recorded data:
>  <ITEM_SEQUENCE>
CAQNVQLINTAGNASASA [HC365]

>  <DISCRETE_LABEL>
F

$$$$
>  <ITEM_SEQUENCE>
CAECYDAGCAAGNASASA [HC920]

>  <DISCRETE_LABEL>
F

$$$$

Query: Kindly determine if furin cleavage Z-score recorded for CAMEECSQKLAGNASASA [HC1754] is above or exactly 0.3.
Response: T

Query: // repeat for CAGRDKNQVEAGNASASA [HC685] and report
Response: F

Query: // repeat for CATRTIASPKAGNASASA [HC704] and report
Response: F

Query: // repeat for CAGHVKNGTMAGNASASA [HC1179] and report
Response: T
